assay: Cytotoxicity against MDCK cells assessed as cell viability after 72 hrs by MTS assay; type: cell-based, Canis lupus familiaris; details: dog
Entries annotated with measured CC50 at 72 h

mol-smiles	CC50 at 72 h
N=C(N)N1C[C@@H]2[C@H](C1)[C@H]1C3CC4[C@H]([C@H]41)[C@@H]32	50 µM
C1C2[C@@H]3[C@H]2[C@@H]2C1[C@H]3[C@@H]1CNC[C@@H]12	> 100 µM
N=C(N)N1C[C@@H]2[C@H](C1)[C@@H]1[C@@H]3[C@H]4C=C[C@H]5[C@@H]3[C@H]2[C@H]2[C@@H]5[C@@H]4[C@@H]12	1.2 µM

---

experiment: Cytotoxicity against MDCK cells assessed as alternations in cell morphology after 72 hrs; type: cell-based, Canis lupus familiaris; details: dog

mol-smiles	units-of-measure	censoring-sign	MCC at 72 h
C1C[C@H]2[C@H]3[C@H]4[C@@H]1[C@@H]1[C@H]2[C@@H]2[C@H]3[C@@H]3CNC[C@@H]3[C@H]4[C@H]12	µM	=	4
C1=C[C@H]2[C@H]3[C@H]4[C@@H]1[C@@H]1[C@H]2[C@@H]2[C@H]3[C@@H]3CNC[C@@H]3[C@H]4[C@H]12	µM	=	20
C1C2[C@@H]3[C@H]2[C@@H]2C1[C@H]3[C@@H]1CNC[C@@H]12	µM	>	100

---

Entries annotated with measured MCC at 72 h
assay: Cytotoxicity against MDCK cells assessed as alternations in cell morphology after 72 hrs; format: cell-based, Canis lupus familiaris; settings: dog
quantity-kind: MCC at 72 h (µM)

mol-smiles	units-of-measure	censoring-sign	value
N=C(N)N1C[C@@H]2[C@H](C1)[C@H]1C3CC4[C@H]([C@H]41)[C@@H]32	µM	>	100
N=C(N)N1C[C@@H]2[C@H](C1)[C@@H]1[C@@H]3[C@H]4CC[C@H]5[C@@H]3[C@H]2[C@H]2[C@@H]5[C@@H]4[C@@H]12	µM	=	7
N=C(N)N1C[C@@H]2[C@H](C1)[C@@H]1[C@@H]3[C@H]4C=C[C@H]5[C@@H]3[C@H]2[C@H]2[C@@H]5[C@@H]4[C@@H]12	µM	=	2
